- targetUnderTest: ENPP3 (Homo sapiens, UniProt O14638)
- Sequence (O14638 whole entry, species assumed): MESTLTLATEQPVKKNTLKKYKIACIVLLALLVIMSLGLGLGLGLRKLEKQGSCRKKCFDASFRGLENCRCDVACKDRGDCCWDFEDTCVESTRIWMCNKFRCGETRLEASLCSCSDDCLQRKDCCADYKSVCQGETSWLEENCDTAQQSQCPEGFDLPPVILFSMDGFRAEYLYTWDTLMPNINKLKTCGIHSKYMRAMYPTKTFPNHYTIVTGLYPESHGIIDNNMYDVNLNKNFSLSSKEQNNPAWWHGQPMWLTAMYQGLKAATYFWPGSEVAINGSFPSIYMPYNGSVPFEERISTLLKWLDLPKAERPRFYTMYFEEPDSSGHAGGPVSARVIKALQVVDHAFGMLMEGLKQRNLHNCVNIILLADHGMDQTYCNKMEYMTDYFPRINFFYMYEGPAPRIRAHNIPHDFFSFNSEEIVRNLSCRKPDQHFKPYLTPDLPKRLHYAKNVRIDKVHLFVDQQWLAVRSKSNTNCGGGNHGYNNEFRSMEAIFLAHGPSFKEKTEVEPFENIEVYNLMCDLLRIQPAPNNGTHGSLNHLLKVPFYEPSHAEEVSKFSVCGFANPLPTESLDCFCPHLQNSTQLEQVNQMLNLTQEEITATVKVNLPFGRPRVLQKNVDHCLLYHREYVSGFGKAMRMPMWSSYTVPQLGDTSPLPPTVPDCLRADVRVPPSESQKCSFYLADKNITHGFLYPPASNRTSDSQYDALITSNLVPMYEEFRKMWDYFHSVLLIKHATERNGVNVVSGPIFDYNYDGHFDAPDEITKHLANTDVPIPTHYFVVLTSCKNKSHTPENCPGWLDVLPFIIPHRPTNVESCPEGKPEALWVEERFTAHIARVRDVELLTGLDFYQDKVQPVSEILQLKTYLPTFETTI
- assayProcedure: ENPP3 Km ATP assay
- Format: biochemical
- statedConditions: ATP at Km
observedProperty: IC50

NS(=O)(=O)c1ccc(CNc2nc(NC3CCCCC3)nc3scc(-c4ccccc4)c23)cc1 [Example 1.40]; 1 to 20 µM
Cn1ncc2c(NCc3ccc(S(N)(=O)=O)cc3)ccnc21 [Example 2.60]; 0.1 to 1 µM
Cc1csc2c(N3CCC(Nc4ccncc4)CC3)ncnc12 [Example 3.24]; > 20 µM

Give a short answer stating reported IC50 for COc1cc(S(N)(=O)=O)ccc1CNc1nc(-c2ccccn2)nc2scc(-c3ccccc3)c12 [Example 1.17] .
1 to 20 µM

Give the value of IC50 reported for the following: NS(=O)(=O)c1ccc(CNc2nc(-c3ccccn3)nc3scc(-c4ccccn4)c23)cc1 [Example 1.23]
1 to 20 µM
